# target_or_system: human Ephrin type-A Receptor 1 (EphA1), EPHA1 (gene 2041) (UniProt P21709)
# Sequence (P21709 whole entry, looked up): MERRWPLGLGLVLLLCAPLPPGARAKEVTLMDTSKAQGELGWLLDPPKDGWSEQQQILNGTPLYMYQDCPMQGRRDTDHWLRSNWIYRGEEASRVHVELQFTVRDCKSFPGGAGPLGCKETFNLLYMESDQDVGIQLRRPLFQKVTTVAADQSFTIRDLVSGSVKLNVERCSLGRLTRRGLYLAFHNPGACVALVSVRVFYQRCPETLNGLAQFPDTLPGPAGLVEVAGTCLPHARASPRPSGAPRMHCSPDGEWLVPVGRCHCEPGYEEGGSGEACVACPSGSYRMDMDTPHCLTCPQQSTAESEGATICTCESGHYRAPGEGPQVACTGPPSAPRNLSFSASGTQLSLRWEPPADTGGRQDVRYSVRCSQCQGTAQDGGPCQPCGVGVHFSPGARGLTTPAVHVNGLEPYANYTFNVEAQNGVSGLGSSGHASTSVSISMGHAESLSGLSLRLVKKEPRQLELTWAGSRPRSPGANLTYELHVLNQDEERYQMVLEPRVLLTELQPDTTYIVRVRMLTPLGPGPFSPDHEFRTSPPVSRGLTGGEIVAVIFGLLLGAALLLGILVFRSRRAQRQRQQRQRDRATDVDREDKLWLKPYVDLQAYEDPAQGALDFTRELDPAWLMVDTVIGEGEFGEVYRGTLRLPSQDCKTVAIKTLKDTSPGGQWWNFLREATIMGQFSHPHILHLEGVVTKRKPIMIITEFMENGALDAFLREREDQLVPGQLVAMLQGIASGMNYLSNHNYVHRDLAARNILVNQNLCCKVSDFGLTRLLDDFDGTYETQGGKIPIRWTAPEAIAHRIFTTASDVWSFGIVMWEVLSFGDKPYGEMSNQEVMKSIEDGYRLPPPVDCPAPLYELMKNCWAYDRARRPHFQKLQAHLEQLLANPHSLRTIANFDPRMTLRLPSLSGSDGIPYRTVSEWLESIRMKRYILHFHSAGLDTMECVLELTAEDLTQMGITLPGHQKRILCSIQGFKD
# measurement_notes: NVS_ENZ_hEphA1: NovaScreen (NVS) Enzymatic Assay for human Ephrin type-A Receptor 1 (EphA1) (AID 2283158);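 note: activity is signal loss versus DMSO meaning EphA1 kinase inhibition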
Records with an inconclusive call do not appear. Activity calls are given as the source filed them. Rule for the calls: active = hit-call score of the fitted dose curve at least 0.9, where 1 is the maximum; inconclusive = response in the unintended direction; inactive = score below 0.9.
Labels: Yes = active, No = inactive

# compound, label
rows = [
    ("BrCBr", "No"),
    ("O=[N+]([O-])C=Cc1ccccc1", "No"),
    ("O=P1(NCCCl)OCCCN1CCCl (stereo not drawn)", "No"),
    ("CC(=O)/C=C/c1ccccc1", "No"),
    ("O=C1C(Cl)=C(Cl)C(=O)C(Cl)=C1Cl", "No"),
    ("CC(C)(C)C(=O)CCl", "No"),
    ("CCC(C)(C)O", "No"),
    ("CCC[N+](=O)[O-]", "Yes"),
]

====

# measurement_notes: TOX21_p53_BLA_p2_viability: Viability Assessment in the Tox21 HCT-116 p53 Agonism Beta-lactamase Assay, Phase 2 (AID 2283591);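 note: compound exposure lasted 16 h at 37 °C; actives lower the ATP signal meaning cytotoxicity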
Records with an inconclusive call do not appear. The source made the active and inactive calls. The calls were made as follows: active = hit-call score of the fitted dose curve at least 0.9, where 1 is the maximum; inconclusive = response in the unintended direction; inactive = score below 0.9.
Classes used: 1 (yes) = active, 0 (no) = inactive

# compound, label
records = [
    ("ClCc1ccccc1", "0 (no)"),
    ("CCCSc1cc(OC)c(CCN)cc1OC", "0 (no)"),
    ("CC(Cl)C(=O)O (centres undefined)", "0 (no)"),
    ("COc1ccc(OC)c([C@@H](O)[C@H](C)N)c1", "0 (no)"),
    ("O=C(O)COc1ccccc1", "0 (no)"),
    ("CC(C)(O)C#N", "0 (no)"),
    ("CC(=O)CCC(C)=O", "0 (no)"),
    ("O=CC(Br)(Br)Br", "0 (no)"),
    ("O=C(NCc1cccnc1)Nc1ccc([N+](=O)[O-])cc1", "0 (no)"),
    ("Nc1ccccc1C(=O)OCC=Cc1ccccc1", "1 (yes)"),
    ("CCOP(=S)(OCC)SC(CCl)N1C(=O)c2ccccc2C1=O (centres undefined)", "0 (no)"),
    ("CCOP(=S)(OCC)Oc1cc(-c2ccccc2)on1", "0 (no)"),
    ("COC1=CC(=O)O[C@@H](CCc2ccccc2)C1", "0 (no)"),
    ("N#Cc1cccc(C#N)c1", "0 (no)"),
    ("COP(=S)(OC)Oc1ccc([N+](=O)[O-])cc1Cl", "0 (no)"),
    ("C=CCC1(C(C)CCC)C(=O)N=C(S)NC1=O (centres undefined)", "0 (no)"),
    ("C[C@]12CC[C@@H]3c4ccc(OC(=O)N(CCCl)CCCl)cc4CC[C@H]3[C@@H]1CC[C@@H]2O", "0 (no)"),
    ("C#C[C@]1(O)C=C[C@H]2[C@@H]3CCC4=CC(=O)CC[C@@H]4[C@H]3CC[C@@]21CC", "0 (no)"),
    ("N#CCCCCC#N", "0 (no)"),
    ("NC(=O)CS(=O)C(c1ccccc1)c1ccccc1 (centres undefined)", "0 (no)"),
    ("CCCN1CCC[C@@H]2Cc3nc(N)ncc3C[C@H]21", "0 (no)"),
    ("C[C@@H]1[C@@H]2Cc3ccc(O)cc3[C@@]1(C)CCN2CC1CC1", "0 (no)"),
    ("CCC(C)(S(=O)(=O)CC)S(=O)(=O)CC", "0 (no)"),
    ("Nc1c(Br)cc([N+](=O)[O-])cc1[N+](=O)[O-]", "0 (no)"),
    ("Cc1nc2ccccc2c(=O)n1-c1ccccc1Cl", "0 (no)"),
    ("N#CCCCl", "0 (no)"),
    ("CNP(=O)(OC)Oc1ccc(C(C)(C)C)cc1Cl (centres undefined)", "0 (no)"),
    ("CN(C)CCc1c[nH]c2cccc(OP(=O)(O)O)c12", "0 (no)"),
    ("[Cl][Hg][c]1ccccc1", "1 (yes)"),
]
